test system: HT29; assay: Cytotoxicity in vitro in the presence and absence of elastase (MTT); format: cell-based, human; settings: read-out: HT29 IC50 w elastase
Counter-ions that a name gives are not always drawn.
READOUT_TYPE: IC50

CCCNC(=O)Nc1cccc(S(=O)(=O)Nc2cccc([C@@H](CC(=O)O)NC(=O)Nc3ccc(NC(=O)NCCOCCOCCOCCC(=O)N[C@@H](CC(=O)O)C(=O)N4CCC[C@H]4C(=O)N[C@H](C(=O)O[C@]4(CC)C(=O)OCc5c4cc4n(c5=O)Cc5c-4nc4cc(F)c(C)c6c4c5[C@@H](N)CC6)C(C)C)cc3)c2)c1; 10 to 100 pM

Please look at the following compound next.
QUERY: Bench note: what IC50 did CCCNC(=O)Nc1cccc(S(=O)(=O)Nc2cccc([C@H](CC(=O)O)NC(=O)Nc3ccc(NC(=O)NCCOCCOCCOCCC(=O)N[C@@H](CC(=O)O)C(=O)N4CCC[C@H]4C(=O)N[C@H](C(=O)O[C@]4(CC)C(=O)OCc5c4cc4n(c5=O)Cc5cc6cc7c(cc6nc5-4)OCO7)C(C)C)cc3)c2)c1 [Compound 15, sodium salt] show?
RESULT: 10 to 100 pM

----------
system: HT29; test: Cytotoxicity in vitro in the presence and absence of elastase (MTT); type: cell-based, human; conditions: read-out: HT29 IC50 w elastase
pIC50: −log10 of the molar value. Structures can show the parent of a compound that is named as a salt.
READOUT_TYPE: pIC50

Some solved cases for reference:
CCCNC(=O)Nc1cccc(S(=O)(=O)Nc2cccc([C@@H](CC(=O)O)NC(=O)Nc3ccc(NC(=O)NCCOCCOCCOCCC(=O)N[C@@H](CC(=O)O)C(=O)N4CCC[C@H]4C(=O)N[C@H](C(=O)O[C@]4(CC)C(=O)OCc5c4cc4n(c5=O)Cc5cc6cc7c(cc6nc5-4)OCO7)C(C)C)cc3)c2)c1 [Compound 5, sodium salt]; > 11.00
CCCNC(=O)Nc1cccc(S(=O)(=O)Nc2cccc([C@H](CC(=O)O)NC(=O)Nc3ccc(NC(=O)NCCOCCOCCOCCC(=O)N[C@@H](CC(=O)O)C(=O)N4CCC[C@H]4C(=O)N[C@H](C(=O)O[C@]4(CC)C(=O)OCc5c4cc4n(c5=O)Cc5c-4nc4cc(F)c(C)c6c4c5[C@@H](NC(C)=O)CC6)C(C)C)cc3)c2)c1; 9.00 to 10.00

Please look at the following molecule next.
QUERY: Bench note: what pIC50 did CCCNC(=O)Nc1cccc(S(=O)(=O)Nc2cccc([C@@H](CC(=O)O)NC(=O)Nc3ccc(NC(=O)NCCOCCOCCOCCC(=O)N[C@@H](CC(=O)O)C(=O)N4CCC[C@H]4C(=O)N[C@H](C(=O)O[C@]4(CC)C(=O)OCc5c4cc4n(c5=O)Cc5c-4nc4cc(F)c(C)c6c4c5[C@@H](NC(=O)OCc4ccccc4)CC6)C(C)C)cc3)c2)c1 show?
RESULT: 9.00 to 10.00

----------
System: 786-O
Experiment: Cytotoxicity in vitro in the presence and absence of elastase (MTT)
Type: cell-based, human
Settings: read-out: 786-O IC50 w elastase
Protocol: Cultivation of cells was performed according to standard procedures with the media recommended by the provider. The cells, in a total volume of 100 μL, were seeded in a 96-well plate with a white bottom (#3610). After a 24 h incubation period at 37° C. and […], the medium was exchanged by adding 90 μL fresh medium. […] The proliferation was detected using the MTT assay (ATCC). […] The formed dye was detected at 570 nm. […]
pIC50: −log10 of the molar value. Counter-ions that a name gives are not always drawn.
READOUT_TYPE: pIC50

CCCNC(=O)Nc1cccc(S(=O)(=O)Nc2cccc([C@@H](CC(=O)O)NC(=O)Nc3ccc(NC(=O)NCCOCCOCCOCCC(=O)N[C@@H](CC(=O)O)C(=O)N4CCC[C@H]4C(=O)N[C@H](C(=O)O[C@]4(CC)C(=O)OCc5c4cc4n(c5=O)Cc5c-4nc4cc(F)c(C)c6c4c5[C@@H](N)CC6)C(C)C)cc3)c2)c1 [Compound 4]; 10.00 to 11.00
CCCNC(=O)Nc1cccc(S(=O)(=O)Nc2cccc([C@@H](CC(=O)O)NC(=O)Nc3ccc(NC(=O)NCCOCCOCCOCCC(=O)N[C@@H](CC(=O)O)C(=O)N4CCC[C@H]4C(=O)N[C@H](C(=O)O[C@]4(CC)C(=O)OCc5c4cc4n(c5=O)Cc5cc6cc7c(cc6nc5-4)OCO7)C(C)C)cc3)c2)c1 [Compound 5, sodium salt]; > 11.00
CCCNC(=O)Nc1cccc(S(=O)(=O)Nc2cccc([C@H](CC(=O)O)NC(=O)Nc3ccc(NC(=O)NCCOCCOCCOCCC(=O)N[C@@H](CC(=O)O)C(=O)N4CCC[C@H]4C(=O)N[C@H](C(=O)O[C@]4(CC)C(=O)OCc5c4cc4n(c5=O)Cc5cc6cc7c(cc6nc5-4)OCO7)C(C)C)cc3)c2)c1 [Compound 15, sodium salt]; 10.00 to 11.00
CCCNC(=O)Nc1cccc(S(=O)(=O)Nc2cccc([C@@H](CC(=O)O)NC(=O)Nc3ccc(NC(=O)NCCOCCOCCOCCC(=O)N[C@@H](CC(=O)O)C(=O)N4CCC[C@H]4C(=O)N[C@H](C(=O)O[C@]4(CC)C(=O)OCc5c4cc4n(c5=O)Cc5c-4nc4cc(F)c(C)c6c4c5[C@@H](NC(=O)OCc4ccccc4)CC6)C(C)C)cc3)c2)c1 [Compound 3]; 9.00 to 10.00

Please look at the following molecule next.
QUERY: Recall the recorded pIC50 for CCCNC(=O)Nc1cccc(S(=O)(=O)Nc2cccc([C@H](CC(=O)O)NC(=O)Nc3ccc(NC(=O)NCCOCCOCCOCCC(=O)N[C@@H](CC(=O)O)C(=O)N4CCC[C@H]4C(=O)N[C@H](C(=O)O[C@]4(CC)C(=O)OCc5c4cc4n(c5=O)Cc5c-4nc4cc(F)c(C)c6c4c5[C@@H](NC(C)=O)CC6)C(C)C)cc3)c2)c1 [Compound 13] with 786-O and state it.
RESULT: 10.00 to 11.00

----------
Reported AC50 is given for each of the following compounds.
tested on: SUM149; assay: Cytotoxicity assay (Version 2), automated, AC50, with or without elastase; assay type: cell-based; details: SUM149 cells; Version 2; without elastase; activity concentration at −50%; read-out: SUM149 AC50 −elastase

Some solved cases for reference:
CCCNC(=O)Nc1cccc(S(=O)(=O)Nc2cccc([C@@H](CC(=O)O)NC(=O)Nc3ccc(NC(=O)NCCOCCOCCOCCC(=O)N[C@@H](CC(=O)O)C(=O)N4CCC[C@H]4C(=O)N[C@H](C(=O)O[C@]4(CC)C(=O)OCc5c4cc4n(c5=O)Cc5c-4nc4cc(F)c(C)c6c4c5[C@@H](N(CC)CC)CC6)C(C)C)cc3)c2)c1; > 100 nM
CCCNC(=O)Nc1cccc(S(=O)(=O)Nc2cccc([C@@H](CC(=O)O)NC(=O)Nc3ccc(NC(=O)NCCOCCOCCOCCC(=O)N[C@@H](CC(=O)O)C(=O)N4CCC[C@H]4C(=O)N[C@H](C(=O)O[C@]4(CC)C(=O)OCc5c4cc4n(c5=O)Cc5c-4nc4cc(F)c(C)c6c4c5[C@@H](N(C)C)CC6)C(C)C)cc3)c2)c1; > 100 nM
CCN(CC)[C@H]1CCc2c(C)c(F)cc3nc4c(c1c23)Cn1c-4cc2c(c1=O)COC(=O)[C@]2(O)CC; 1.1 to 10 nM

QUERY: Bench note: what AC50 did CCCNC(=O)Nc1cccc(S(=O)(=O)Nc2cccc([C@@H](CC(=O)O)NC(=O)Nc3ccc(NC(=O)NCCOCCOCCOCCC(=O)N[C@@H](CC(=O)O)C(=O)N4CCC[C@H]4C(=O)N[C@H](C(=O)O[C@]4(CC)C(=O)OCc5c4cc4n(c5=O)Cc5c-4nc4cc(F)c(C)c6c4c5[C@@H](N)CC6)C(C)C)cc3)c2)c1 show?
RESULT: 11 to 100 nM

----------
test system: SUM149; assay: Cytotoxicity in vitro in the presence and absence of elastase (MTT); type: cell-based; settings: SUM149 cells; without elastase; 72 h; MTT; read-out: SUM149 IC50 w/o
READOUT_TYPE: IC50

CCN(CC)[C@H]1CCc2c(C)c(F)cc3nc4c(c1c23)Cn1c-4cc2c(c1=O)COC(=O)[C@]2(O)CC [Compound 17]; 0.1 to 1 nM

QUERY: Bench note: what IC50 did CC[C@@]1(O)C(=O)OCc2c1cc1n(c2=O)Cc2c-1nc1cc(F)c(C)c3c1c2[C@@H](NC(C)=O)CC3 [Compound 7] show?
RESULT: < 0.01 nM

QUERY: Bench note: what IC50 did CC[C@@]1(O)C(=O)OCc2c1cc1n(c2=O)Cc2c-1nc1cc(F)c(C)c3c1c2[C@@H](NC(=O)Cc1ccncc1)CC3 [Compound 9] show?
RESULT: 0.01 to 0.1 nM

QUERY: Bench note: what IC50 did CCCNC(=O)Nc1cccc(S(=O)(=O)Nc2cccc([C@@H](CC(=O)O)NC(=O)Nc3ccc(NC(=O)NCCN(C)CCN(C)CCN(C)CC(=O)N[C@@H](CC(N)=O)C(=O)N4CCC[C@H]4C(=O)N[C@H](C(=O)O[C@]4(CC)C(=O)OCc5c4cc4n(c5=O)Cc5cc6cc7c(cc6nc5-4)OCO7)C(C)C)cc3)c2)c1 [Compound 6] show?
RESULT: 0.1 to 1 nM
